TGI listing for selected molecules.
Test system: RPMI-8226 leukemia
ASSAY_NAME: NCI tumour cell line growth inhibition, 48 h

As a guide, the following entries are already answered.
> print(dat)
                                   molecule  endpoint.result
1           Cc1ccc(S(=O)(=O)c2ccc(N)cc2)cc1         > 100 µM
2  C#COc1cccc(Nc2c(C#N)cnc3ncc(NC(=O)CCl)cc23)c1        > 62.5 µM
3  CC(C(=O)OCc1ccccc1)(c1ccco1)N1C(=O)OC(c2ccccc2)C1c1ccccc1 (stereo not given)         > 100 µM
4  O=C(O)c1nc2ccc(C(F)(F)F)cc2nc1NCc1ccc(F)cc1         > 100 µM

### Prompt Form field: reported TGI of O=C(Oc1ccccc1)N1c2ccccc2[C@@]23O[C@]24CCC[C@H]3C#C/C=C\C#C[C@H]14
### Response 32.9 µM

----------
Tested on: SK-MEL-28 melanoma
ASSAY_NAME: NCI tumour cell line growth inhibition, 48 h
Reported TGI values are given for each entry in this list.

### Prompt # query: TGI of entry CC(=O)[O][Ga]([Br])[O]C(C)=O
### Response > 100 µM

### Prompt Using the record for C/C(=N/NC(=S)Nc1ccc(Cl)cc1)c1cccc(/C(C)=N\NC(=S)Nc2ccc(Cl)cc2)n1 , report its TGI.
### Response 45.6 µM

### Prompt // returns reported TGI for input CCOP(=O)(COCCn1ncc(=O)[nH]c1=O)OCC
### Response > 100 µM

### Prompt Dear colleague, I am looking for the recorded TGI of the following compound: CC1=CCC(C)=Nc2nc3ccccc3n21
### Response > 100 µM

### Prompt Any idea what its TGI is? The compound is N=C(N)c1ccc2nc(-c3cc(CC(=O)N[C@@H](CC(=O)O)C(=O)O)cc(-c4cc(S(N)(=O)=O)ccc4O)c3O)[nH]c2c1
### Response > 100 µM

----------
Quick reference: TGI of the listed items.
Tested on: OVCAR-4 ovarian
ASSAY_NAME: NCI tumour cell line growth inhibition, 48 h

Would you please look over these solved cases?
MOLECULE	TGI
O=C1c2cccc3cccc(c23)C2NCCCN12 (centres undefined)	> 100 µM
CC(C)(S)C(N)C(=O)O (centres undefined)	> 5000 µM
O=C(NCCCl)N(O)C(=O)Nc1ccccc1	> 100 µM

Here's the next entry for you.
### Prompt Bench note: what TGI did COc1cc(N=Nc2cccc(S(=O)(=O)O)c2)ccc1N=Nc1ccc(/C=C/c2ccc(-n3on3-c3ccc(/C=C/c4ccc(N=Nc5ccc(N=Nc6cccc(S(=O)(=O)O)c6)cc5OC)cc4S(=O)(=O)O)c(S(=O)(=O)O)c3)cc2S(=O)(=O)O)c(S(=O)(=O)O)c1 show?
### Response > 100 µM

----------
System: UACC-62 melanoma
ASSAY_NAME: NCI tumour cell line growth inhibition, 48 h
MEASUREMENT_LABEL: GI50

Reference set (4 entries):
> print(dat)
                                   molecule  endpoint.result
1  COc1ccc(O)c(C(=O)c2ccc(C(=O)N[C@H]3CCCNC[C@@H]3NC(=O)c3ccncc3)cc2)c1F          9.26 µM
2  C#COc1cccc(Nc2c(C#N)cnc3ncc(NC(=O)CCl)cc23)c1          35.7 µM
3  O=C1NC(=NCCc2cccc(Cl)c2)S/C1=C\c1ccc2ncccc2c1          > 25 µM
4  CC(=O)Oc1ccccc1C(=O)Nc1ncc([N+](=O)[O-])s1          1.23 µM

### Prompt Please provide the recorded GI50 for COc1c[c]([Hg][O]C(C)=O)c(OC)c(NC(=O)CC(C)=O)[c]1[Hg][O]C(C)=O , tested on UACC-62 melanoma.
### Response 11.4 µM

### Prompt Find the measured GI50: item NC(=O)c1cc(S(=O)(=O)Nc2nnc(-c3ccccc3)c(-c3ccccc3)n2)c(SCc2ccccc2)cc1Cl , target or system UACC-62 melanoma.
### Response 71.1 µM

### Prompt Return GI50 measured with UACC-62 melanoma given this molecule: CC1=C(C(=O)Nc2ccc(Cl)c(Cl)c2)C(c2cccc(Oc3ccccc3)c2)NC(=O)N1 (configuration not stated)
### Response 6.27 µM

----------
Test system: HS 578T breast
ASSAY_NAME: NCI tumour cell line growth inhibition, 48 h
List of TGI values.
Return type: number; implicit unit µM.

Examples from the recorded data:
> print(dat)
                                   compound  measurement.label  unit.annotation  endpoint.result
1  CC1C[C@]2(C)C(=NCCN)Nc3ccccc3[C@@H]2N(C)c2ccccc21 (stereo not given in full)                TGI               µM             38.2
2  CCN1CCC(O)(/C=C/c2ccc(C)cc2)C(C(=O)/C=C/c2ccc(C)cc2)C1 (stereo not given)                TGI               µM             7.55

API: the following record is the query input.
### Prompt Using the record for CNC(=S)N=Nc1c(O)n(CN2CCOCC2)c2ccc([N+](=O)[O-])cc12 , report its TGI.
### Response 73

----------
The compounds listed here are annotated with their TGI.
Test system: IGROV1 ovarian
ASSAY_NAME: NCI tumour cell line growth inhibition, 48 h
Give the value, in units of µM, as a plain number.

> print(dat)
                                item.smiles  target.or.system  measurement.label  unit.annotation  endpoint.result
1  CCCCCOc1ccc(/C=N/Nc2cc(C)nc3ccc(Br)cc23)cc1    IGROV1 ovarian                TGI               µM             3.37

### Prompt Name the recorded TGI for Fc1ccc(C(=C2CCN(CCc3ccc4[nH]c(=S)[nH]c4c3)CC2)c2ccc(F)cc2)cc1 .
### Response 17

----------
Tested on: OVCAR-3 ovarian
ASSAY_NAME: NCI tumour cell line growth inhibition, 48 h
MEASUREMENT_LABEL: GI50

// worked examples, GI50 included
> print(dat)
                                   compound  endpoint.result
1  N#CC1=C(N)Oc2cc(O)ccc2C1c1cccc2ccccc12 (configuration not stated)          4070 nM
2  C1=C\COCc2cc(ccc2OCCN2CCCC2)Nc2nccc(n2)-c2cccc(c2)COC/1          2010 nM
3  O=C1NC(=NCCc2cccc(Cl)c2)S/C1=C\c1ccc2ncccc2c1       > 25000 nM

### Prompt What measured GI50 goes with O=C1NC(=O)/C(=C\c2ccccc2)C2=C1CCCC2 ?
### Response 2710 nM

### Prompt Consider the compound COCC1(CO)C(=O)C2CCN1CC2 (configuration not stated) and give its measured GI50.
### Response 14200 nM

### Prompt Could you tell me which GI50 is on file for CCCOc1ccc2sc(NC(=O)OC)nc2c1 ?
### Response 2270 nM

### Prompt Quick one: GI50 of COc1ccc(-n2c(C)cc(-c3ccccc3)c2C)cc1 ?
### Response 2610 nM

----------
Test system: EKVX NSCLC
ASSAY_NAME: NCI tumour cell line growth inhibition, 48 h; in the data active means GI50 below about 0.43 µM; inactive means the rest
Thanks in advance; please answer with one of these: YES (active), NO (inactive)

> print(dat)
                                item.smiles  category.label
1       O=C1NC(=O)/C(=C\c2ccccc2)C2=C1CCCC2              NO
2  NC(=O)OCCn1cc(-c2nc(-c3c[nH]c4ncccc34)cs2)c2ccccc21              NO
3  O[C@H](c1cc(C(F)(F)F)nc2c(C(F)(F)F)cccc12)[C@@H]1CCCCN1              NO
4  O=C(Nc1ccc(F)cc1)c1cc(S(=O)(=O)Nc2nc3ccccc3o2)c(SCc2ccccc2)cc1Cl              NO
5  CSc1ccc2c(c1)C(=O)c1c-2n(CCCBr)c(=O)c2cc([N+](=O)[O-])ccc12              NO
6  COC(=O)[C@@H](C)C[C@H](Cc1ccccc1)NC(=O)c1csc([C@@H](C[C@H](C(C)C)N(C)C(=O)[C@@H](NC(=O)[C@H]2CCCCN2C)C2CCCCC2)OC(C)=O)n1             YES
7  COc1cc2c3c(n(CCCOC(=O)C(F)(F)F)c(=O)c2cc1OC)-c1cc2c(cc1C3=O)OCO2              NO
8  CN1C(=O)/C(=C/c2c(Cl)n(C)c3ccccc23)c2ccccc21              NO

### Prompt Name the outcome recorded for CC(=O)Oc1ccccc1C(=O)Nc1ncc([N+](=O)[O-])s1 in the assay.
### Response NO

### Prompt Test call, this compound: COc1cc2c(c(OC)c1OC)-c1ncc3cc4c(cc3c1C2)OCO4
### Response NO
